meta.source: patent US20180320217A1

- Test system: diaphorase
- assay.name: Formation of formazan dyes: NADH and diaphorase, absence of malate (TABLE 7)
- Assay type: biochemical, Clostridium kluyveri
- condition.context: NADH and diaphorase, absence of malate; 10 h
Record met whenever Formation of formazan dyes, absorbance, Means 10 h is at 3 or higher; record not met when lower.

Reference set (4 entries):
compound	label.value
COc1cc([N+](=O)[O-])ccc1-[n+]1nc(-c2ccc(S(=O)(=O)[O-])cc2S(=O)(=O)[O-])nn1-c1ccc([N+](=O)[O-])cc1.[Na+] [WST-8]	met
COc1cc([N+](=O)[O-])c(S(=O)(=O)[O-])cc1-n1nc(C(=O)Nc2ccccc2)n[n+]1-c1cc(S(=O)(=O)O)c([N+](=O)[O-])cc1OC [XTT]	not met
Cc1nc(-[n+]2nc(-c3cccc(OCC(=O)O)c3)nn2-c2ccc(S(=O)(=O)[O-])cc2)sc1C [MTS]	met
COc1cc(-c2ccc(-[n+]3nc(-c4ccc(C(=O)N(CCS(=O)(=O)[O-])CCS(=O)(=O)[O-])cc4)nn3-c3nc4ccccc4s3)c(OC)c2)ccc1-[n+]1nc(-c2ccc(C(=O)N(CCS(=O)(=O)[O-])CCS(=O)(=O)[O-])cc2)nn1-c1nc2ccccc2s1.[Na+].[Na+] [WST-5]	not met

Let's switch to this compound now.
stdin: API: above_or_equal(metric=Formation of formazan dyes, absorbance, Means 10 h, cutoff=3) for item O=[N+]([O-])c1ccc(-[n+]2nc(-c3ccc(S(=O)(=O)[O-])cc3S(=O)(=O)[O-])nn2-c2ccc(I)cc2)cc1.[Na+] [WST-1]
stdout: met

====

- Tested on: diaphorase
- assay.name: Formation of formazan dyes: NADH, diaphorase and malate (TABLE 8)
- Type: biochemical, Clostridium kluyveri
- condition.context: NADH, diaphorase and malate; 3 h
Some molecules, each annotated with its measured Formation of formazan dyes, absorbance, Means 3 h.
// return a plain number; no unit text

These recorded examples may help you get a feel for the data.
O=[N+]([O-])c1ccc(-[n+]2nc(-c3ccc(S(=O)(=O)[O-])cc3S(=O)(=O)[O-])nn2-c2ccc(I)cc2)cc1.[Na+] 2.57
Cc1nc(-[n+]2nc(-c3cccc(OCC(=O)O)c3)nn2-c2ccc(S(=O)(=O)[O-])cc2)sc1C 3.00

stdin: Read the entry "COc1cc([N+](=O)[O-])c(S(=O)(=O)[O-])cc1-n1nc(C(=O)Nc2ccccc2)n[n+]1-c1cc(S(=O)(=O)O)c([N+](=O)[O-])cc1OC" and write its reported Formation of formazan dyes, absorbance, Means 3 h.
stdout: 2.17

====

- Test system: oral lavage
- assay.name: Formation of formazan dyes: oral lavage and diaphorase, not malate (TABLE 11)
- Type: biochemical, human
- condition.context: oral lavage and diaphorase, not malate; 3 h
List of Formation of formazan dyes, absorbance, Means 3 h values.
Answer as a number with no unit attached.

COc1cc([N+](=O)[O-])c(S(=O)(=O)[O-])cc1-n1nc(C(=O)Nc2ccccc2)n[n+]1-c1cc(S(=O)(=O)O)c([N+](=O)[O-])cc1OC 0.99
COc1cc([N+](=O)[O-])ccc1-[n+]1nc(-c2ccc(S(=O)(=O)[O-])cc2S(=O)(=O)[O-])nn1-c1ccc([N+](=O)[O-])cc1.[Na+] 0.84
Cc1nc(-[n+]2nc(-c3cccc(OCC(=O)O)c3)nn2-c2ccc(S(=O)(=O)[O-])cc2)sc1C 1.00

stdin: Complete the entry with Formation of formazan dyes, absorbance, Means 3 h for "COc1cc(-c2ccc(-[n+]3nc(-c4ccc(C(=O)N(CCS(=O)(=O)[O-])CCS(=O)(=O)[O-])cc4)nn3-c3nc4ccccc4s3)c(OC)c2)ccc1-[n+]1nc(-c2ccc(C(=O)N(CCS(=O)(=O)[O-])CCS(=O)(=O)[O-])cc2)nn1-c1nc2ccccc2s1.[Na+].[Na+]"
stdout: 0.80

stdin: Supply reported Formation of formazan dyes, absorbance, Means 3 h belonging to this molecule: "O=[N+]([O-])c1ccc(-[n+]2nc(-c3ccc(S(=O)(=O)[O-])cc3S(=O)(=O)[O-])nn2-c2ccc(I)cc2)cc1.[Na+]"
stdout: 1.30
